test.name: The compound was tested for the inhibition of Arachidonate 5-lipoxygenase purified from porcine leukocytes.
pIC50: −log10 of the molar value.
quantity: pIC50

Some solved cases for reference:
CCCCCCCCCCCCc1c(-c2ccc(O)c(O)c2)oc2cc(OC)c(OC)c(=O)c-2c1O 6.68
CCCCCCCCCCCCCCc1c(-c2ccc(O)c(O)c2)oc2cc(OC)c(OC)c(OC)c2c1=O 6.62
CCCCCCCCCCCCCCc1c(-c2ccc(O)c(O)c2)oc2c(OC)c(OC)cc(O)c2c1=O 6.30
CCCCCCCCc1c(-c2ccc(O)c(O)c2)oc2cc(OC)c(OC)c(OC)c2c1=O 6.60

[A] CCCCCCCCCCc1c(-c2ccc(O)c(O)c2)oc2cc(OC)c(OC)c(OC)c2c1=O
[B] CCCCCCCCCCCCc1c(-c2ccc(O)c(O)c2)oc2c(OC)c(OC)cc(O)c2c1=O
Looking only at measured pIC50, which entry is lower, A or B ? Your choice should be expressed through its label.
B
(B: 6.47, A: 6.72)
